- Target of assay: Syk (Homo sapiens)
- Construct: purchased Carna Biosciences
- Protocol description: Syk HTRF assay
- Type: biochemical
- Condition info: IC50 activity level, read-out: Activity Level
pIC50: −log10 of the molar value.
Metric name: pIC50

Data request: Could you share what pIC50 was measured for `OC1(Cc2cccc3nc(Nc4ccc(F)cc4)nn23)CCNCC1` , tested on Syk (Homo sapiens)?
Data returned: 5.00 to 6.00

New cases:
Data request: Could you share what pIC50 was measured for `Cc1cc(Nc2nc3cccc(N[C@H]4CC[C@@H](O)CC4)n3n2)cc2c1CC(=O)N2C` , tested on Syk (Homo sapiens)?
Data returned: 6.60 to 11.30

Data request: Could you share what pIC50 was measured for OC(Cc1cccc2nc(Nc3ccc(F)cc3)nn12)c1ccccc1 (centres unmarked) , tested on Syk (Homo sapiens)?
Data returned: 6.30 to 6.60

Data request: Could you share what pIC50 was measured for `Cc1cc(Nc2nc3cccc(CN4CCNC(=O)C4)n3n2)cc2c1C(C)(C)C(=O)N2` , tested on Syk (Homo sapiens)?
Data returned: 6.60 to 11.30

Data request: Could you share what pIC50 was measured for `CNC(=O)c1ccc(Nc2nc3cccc(NC4CCOCC4)n3n2)cc1` , tested on Syk (Homo sapiens)?
Data returned: 5.00 to 6.00

---

Quick reference for pIC50 among some compounds
- Target of assay: Syk (Homo sapiens, UniProt P43405)
- Construct: purchased Carna Biosciences
- Protocol description: Syk HTRF assay
- Type: biochemical
- Condition info: activity levels A-D, read-out: Activity Level (IC50 in the Syk HTRF assay)
pIC50: −log10 of the molar value.

Data request: For the compound `Cc1cc(Nc2nc3cccc(N[C@H]4CC[C@@H](O)CC4)n3n2)ccn1` , what pIC50 is on record?
Data returned: 6.00 to 6.30

Data request: For the compound `COc1ccc(Nc2nc3cccc(-c4ccc5nc(CO)[nH]c5c4)n3n2)cn1` , what pIC50 is on record?
Data returned: 6.30 to 6.60

Data request: For the compound `FC(F)(F)c1ccc(Nc2nc3cccc(CC4CCNCC4)n3n2)cc1` , what pIC50 is on record?
Data returned: 6.60 to 11.30

Data request: For the compound `CN(C)c1ccc(Nc2nc3cccc(-c4ccc5nc(CO)[nH]c5c4)n3n2)cn1` , what pIC50 is on record?
Data returned: 6.60 to 11.30

New cases:
Data request: For the compound `O=C1NCCCN1Cc1cccc2nc(Nc3ccc(C(F)(F)F)cc3)nn12` , what pIC50 is on record?
Data returned: 5.00 to 6.00

---

- Target of assay: Syk (Homo sapiens)
- Construct: purchased Carna Biosciences
- Protocol description: Syk HTRF assay
- Format: biochemical
- Condition info: IC50 activity level, read-out: Activity Level
Quick reference for IC50 among some compounds

Example entries and their recorded answers appear below.
Data request: For the compound `NC(=O)c1ccc(Nc2nc3cccc(N[C@H]4CC[C@@H](O)CC4)n3n2)cc1` , what IC50 is on record?
Data returned: 0.005 to 250 nM

Data request: For the compound NCCOc1cc(Nc2nc3cccc(NC4CCCNC4)n3n2)ccn1 (stereo in doubt) , what IC50 is on record?
Data returned: 0.005 to 250 nM

Data request: For the compound `NC(=O)c1ccc(Nc2nc3cccc(N[C@H]4CCCNC4)n3n2)cc1` , what IC50 is on record?
Data returned: 0.005 to 250 nM

Next compound, please.
Data request: For the compound `CNC(=O)c1ccc(Nc2nc3cccc(NC4CCCC4)n3n2)cc1` , what IC50 is on record?
Data returned: 0.005 to 250 nM
